# STUDY TARGET: Glutamate receptor 2 (Homo sapiens, UniProt P42262)
# Sequence (P42262 whole entry, the tested form may be a part): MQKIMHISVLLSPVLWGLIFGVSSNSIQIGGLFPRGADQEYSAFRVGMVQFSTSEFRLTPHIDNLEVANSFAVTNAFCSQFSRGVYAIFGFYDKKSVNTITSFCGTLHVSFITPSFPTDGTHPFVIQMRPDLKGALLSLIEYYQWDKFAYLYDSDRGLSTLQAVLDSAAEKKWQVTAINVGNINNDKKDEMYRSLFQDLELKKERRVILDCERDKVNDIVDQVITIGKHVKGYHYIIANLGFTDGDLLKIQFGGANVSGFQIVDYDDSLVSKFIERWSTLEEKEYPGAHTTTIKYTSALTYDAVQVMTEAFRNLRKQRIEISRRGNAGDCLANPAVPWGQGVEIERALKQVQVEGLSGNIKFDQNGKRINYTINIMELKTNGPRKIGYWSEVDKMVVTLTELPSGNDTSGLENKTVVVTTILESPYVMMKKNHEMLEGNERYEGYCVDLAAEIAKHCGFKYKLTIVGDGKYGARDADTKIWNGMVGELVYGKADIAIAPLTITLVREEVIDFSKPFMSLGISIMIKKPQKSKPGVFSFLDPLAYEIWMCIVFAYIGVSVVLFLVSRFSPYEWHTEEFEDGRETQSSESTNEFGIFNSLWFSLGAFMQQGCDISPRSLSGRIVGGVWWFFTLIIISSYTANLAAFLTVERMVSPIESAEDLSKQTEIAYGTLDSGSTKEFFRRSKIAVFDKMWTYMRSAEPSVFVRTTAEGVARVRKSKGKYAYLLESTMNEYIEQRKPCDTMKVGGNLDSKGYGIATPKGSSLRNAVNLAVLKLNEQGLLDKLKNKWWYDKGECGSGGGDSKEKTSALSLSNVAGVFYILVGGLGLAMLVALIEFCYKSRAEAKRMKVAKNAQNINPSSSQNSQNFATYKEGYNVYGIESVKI
# PROTOCOL TEXT: Displacement of [3H]-HBT1 from His-tagged GluA2-AMPA receptor LBD (unknown origin) in presence of glutamate by scintillation proximity assay
PARAMETER MEASURED: IC50 (µM)

Consider the reported IC50 for these molecules:
CCN(Cc1cc(C)n(CC2CC2)c(=O)c1)c1ccc(F)cc1 ... 9.9
CCN(Cc1cc(C)n(Cc2ccccc2)c(=O)c1)c1ccc(F)cc1 ... 5.5

[1] CCN(Cc1ccn(CC2CC2)c(=O)c1)c1ccc(F)cc1
[2] CCN(Cc1cc(C)n(CCCC#N)c(=O)c1)c1ccc(F)cc1
Query: Returns: the label, 1 or 2 , whose recorded IC50 is the lower number. Let me know the label of the one you choose.
Response: 1
